These entries and their values trace back to a melting point compilation (Tetko et al.).

propertyMeasured: melting point (°C)

Here are 3 compounds together with their reported answers.
CC1OC(OC2C=C3CCC4C(CCC5(C)C(c6ccc(=O)oc6)CCC45O)C3(C)CC2)C(O)C(O)C1O (stereo not drawn) | 221
Cc1cc(O)nc(O)c1 | 197
CC12CCCC1C1CCC3CC(O)CCC3(C)C1CC2 (stereo not drawn) | 148

[a] CCCCC(C)O (stereo not drawn)
[b] COC(=O)c1cc2cc3c(cc2cc1C(=O)OC)CC3
[c] Cn1c(C(=O)O)cc2occc21
**Q:** Ordering criterion: melting point; begin with the maximum. Put the labels in the requested order and write them down.
**A:** c, b, a
(c: 200 °C, b: 124 °C, a: -23 °C)

* * *

propertyMeasured: melting point (°C)

Here are 5 compounds together with their reported answers.
Clc1cc(Cl)c2c(c1Cl)Oc1c(Cl)cc(Cl)c(Cl)c1O2 | 238
Cc1ccc(N=Nc2ccccc2)cc1 | 71.5
O=CC(O)C(O)CO (stereo not given) | 164
O=Cc1ccc(Br)cc1F | 61
COc1cc2c(c(OC)c1OC)-c1ccc(SC)c(=O)cc1C(NC(C)=O)CC2 (stereo not given) | 193

[P] COc1ccc(C2Nc3nc(C(F)(F)F)nn3C(N)=C2C#N)cc1 (stereo not given)
[Q] O=Cc1ccc(F)cc1Cl
[R] CCOc1ccc(NC(=O)CN)cc1
[S] C[Si]1(C)N[Si](C)(C)N[Si](C)(C)N1
**Q:** Ascending by melting point, please. Put the labels in the requested order and write them down.
**A:** S, Q, R, P

* * *

propertyMeasured: melting point (°C)

[1] Cc1cc2c(o1)-c1c(oc3c(Br)cc(Br)cc13)CCC2C (stereo not given)
[2] N#Cc1ccc(C(Cl)=Cc2ccc(C=C(Cl)c3ccc(C#N)cc3[N+](=O)[O-])cc2)c([N+](=O)[O-])c1
**Q:** Please state the entry with greater melting point among 1 and 2 . Selection: enter the item's label.
**A:** 2
(2: 296 °C, 1: 121 °C)

[A] N#Cc1c(C(F)(F)F)cc(-c2ccccc2)nc1S
[B] CCCCCCCCCCC=CCCCCCCCC(=O)O
[C] CC(=O)c1cccc(S(=O)(=O)Cl)c1
**Q:** Ordering criterion: melting point; begin with the maximum. Put the labels in the requested order and write them down.
**A:** A, C, B

* * *

propertyMeasured: melting point (°C)

Here are 6 molecules together with their reported answers.
O=C(c1ccc(Cl)cc1)c1noc(-c2ccc(Br)cc2)c1S(=O)(=O)c1ccccc1 | 125
Cc1cc(C(C)(C)C)cc(C(C)(C)C)c1O | 51
CCCCCS(=O)CCCCC | 58
Cc1cc(OC(=O)C(F)(F)F)c(C)cc1OC(=O)C(F)(F)F | 89
CCC(=O)Nc1nc(C)c(Cl)s1 | 159
O=C(NC(Cc1ccco1)C(=O)O)OCC1c2ccccc2-c2ccccc21 (centres undefined) | 130

[a] O=C(NNc1ccccc1)c1ccccc1
[b] CC(=O)N(c1ccccc1)c1ccccc1
**Q:** Please state the entry with greater melting point among a and b . Selection: enter the item's label.
**A:** a

[I] Cn1c([N+](=O)[O-])cnc1C=Cc1ccnc(N)n1
[II] C1COCCOCCOCCOCCOCCN1
**Q:** Pick one, I or II : lowest reported melting point. Selection: enter the item's label.
**A:** II
(II: 48 °C, I: 234 °C)

[P] CN1CCC(=C2c3ccccc3CC(=O)c3sccc32)CC1
[Q] O=C1Cc2cc3c(cc21)CC3=O
[R] CC[N+](CC)(CC)S(=O)(=O)[N-]C(=O)OC
[S] Ic1cccc(OCc2ccccc2)c1
**Q:** Ordering criterion: melting point; begin with the maximum. Put the labels in the requested order and write them down.
**A:** Q, P, R, S
(Q: 237 °C, P: 152 °C, R: 77 °C, S: 51 °C)

* * *

propertyMeasured: melting point (°C)

CCCCCCCCCC(C)CC (configuration not stated) | -53
O=C1Cc2cc3c(cc21)OCO3 | 126
CCCCCCCCCCCC(=O)c1ccccc1 | 47

[P] O=c1cc(-c2ccccc2)oc2ccc3ccccc3c12
[Q] CCCCCCCCOC(=O)CC
**Q:** Pick one, P or Q : lowest reported melting point. Selection: enter the item's label.
**A:** Q
(Q: -42.6 °C, P: 164 °C)

[A] CC1CCc2cc3c(cc2N1)CCC(C)N3C(=O)c1ccccc1 (configuration not stated)
[B] FC(F)(F)C1N=NC(N=Cc2ccc(Cl)cc2)=N1 (configuration not stated)
**Q:** Pick one, A or B : lowest reported melting point. Selection: enter the item's label.
**A:** A
(A: 145 °C, B: 234 °C)

[A] Cc1cc(C)n(-c2ccc(C(=O)O)cc2)n1
[B] CCOC(=O)c1cc2ccccc2oc1=S
**Q:** Please state the entry with greater melting point among A and B . Selection: enter the item's label.
**A:** A

* * *

propertyMeasured: melting point (°C)

Here are 5 compounds together with their reported answers.
N#Cc1ccc(N2N=N2)cc1 | 70
O=C1CNCCCNCC(=O)NCCCN1 | 141
COC(=O)C=Cc1ccc(C=CC(=O)OC)c(NC(C)=O)c1 | 168
CCC(C)CCCCO (stereo not drawn) | -104
CC(=O)c1ccc(N2CCCC2)cc1 | 129

[1] CCP(=O)(c1ccccc1)c1ccccc1
[2] C=C=CC
[3] OCc1cc2c(cc1Cl)OCO2
**Q:** Ordering criterion: melting point; begin with the maximum. Put the labels in the requested order and write them down.
**A:** 1, 3, 2
(1: 122 °C, 3: 70 °C, 2: -136 °C)

* * *

propertyMeasured: melting point (°C)

C[Si](C)(O)c1ccc([Si](C)(C)O)cc1 | 135
COc1c(Cl)c(Cl)c(O)c(Cl)c1Cl | 116
CCOCCC(=O)OCC | -75
Cc1cc(F)ccc1CC#N | 26
O=C(Cc1ccccc1)CC(c1ccco1)N1CCCCC1 (stereo unspecified) | 130

[P] O=C(CBr)c1ccccc1[N+](=O)[O-]
[Q] Fc1ccc(I)cc1
[R] CC1CCCC(C)(C)C1 (stereo unspecified)
[S] COc1ccc(-c2cc3c(C#N)c(N)[nH]n3c(=O)c2C#N)cc1
[T] COc1cc(C(=O)c2ccc(Cl)cc2)c([N+](=O)[O-])cc1OC
**Q:** Ascending by melting point, please. Put the labels in the requested order and write them down.
**A:** R, Q, P, T, S

[P] Cc1ccccc1/C=C(/C#N)c1nc2ccccc2c(=O)[nH]1
[Q] Cc1ccccc1N(C)C
**Q:** Pick one, P or Q : lowest reported melting point. Selection: enter the item's label.
**A:** Q

[A] CCC(C(=O)C=Cc1ccccc1)C(=O)OC1CC(C)CCC1C(C)C (stereo unspecified)
[B] CN1CSCSC1
[C] Cc1c(C2(c3cc(Br)c(O)c(Br)c3C)OS(=O)(=O)c3ccccc32)cc(Br)c(O)c1Br
**Q:** Ascending by melting point, please. Put the labels in the requested order and write them down.
**A:** B, A, C
(B: 65 °C, A: 135 °C, C: 222 °C)

* * *

propertyMeasured: melting point (°C)

Here are 3 molecules together with their reported answers.
COc1cc(C=O)ccc1F | 62
CCOC(=O)C1(C)OC(=O)N(c2cc(Cl)cc(Cl)c2)C1=O (stereo not drawn) | 113
COC(=O)[C@@H]1C[C@@H]2CSCN2[C@@]12C(=O)c1cccc3cccc2c13 | 172

[P] C1CCSCC1
[Q] CCC(CO)(CO)CO
**Q:** Pick one, P or Q : lowest reported melting point. Selection: enter the item's label.
**A:** P
(P: 19 °C, Q: 60 °C)

* * *

propertyMeasured: melting point (°C)

CCOC(=O)C=Cc1ccc([N+](=O)[O-])cc1 | 139
NC(=O)NN=Cc1ccc([N+](=O)[O-])cc1 | 217

[P] CC1(C)CC1
[Q] CC(=O)Oc1cc(-c2ccccc2)cc2ccccc12
[R] CC(C)CCC[C@@H](C)[C@H]1CC[C@H]2C3=CC=C4C[C@@H](O)CC[C@]4(C)[C@H]3CC[C@]12C
**Q:** Ordering criterion: melting point; begin with the maximum. Put the labels in the requested order and write them down.
**A:** R, Q, P
(R: 150 °C, Q: 60 °C, P: -109 °C)

* * *

propertyMeasured: melting point (°C)

COC(=O)c1cccc(C(=O)O)c1 | 166
COc1ccc(C(=O)OC2Cc3ccccc32)cc1 (configuration not stated) | 124
C[Si](C)(C)[Si]([Si](C)(C)C)([Si](C)(C)C)[Si](C)(C)C | 267
Cc1cccc(C(=O)O)n1 | 130
Oc1ccc(Br)c(Cl)c1 | 66

[A] Clc1cc(Cl)c2c(oc3c(Cl)cccc32)c1Cl
[B] O=C1CCCCCCCCCCCC1
[C] O=C1c2ccc(O)c(O)c2C(=O)c2ccc(O)c(O)c21
[D] O=C(OCc1ccccc1)ON1C(=O)CCC1=O
**Q:** Ordering criterion: melting point; begin with the maximum. Put the labels in the requested order and write them down.
**A:** C, A, D, B
